Molecular target: human AT1 receptor (Homo sapiens)
Construct: expressed in transfected cells; host or cells: CHO-K1
Experiment: Binding assay using human AT1 receptor-expressing CHO-K1 cell membrane fraction ([125I]-angiotensin II)
Details: 22.5 pM [125I]-angiotensin II, 9 μg AT1 membrane, 1 hr room temperature; read-out: AT1 receptor binding inhibitory action (IC50 (nM))
measured-attribute: IC50
Put your answer as a value accompanied by its unit after it.

Known results for compounds:
CCCCc1nc(COC)n(CC(C)(C)C)c(=O)c1Cc1ccc(-c2ccccc2-c2noc(=O)[nH]2)cc1 [Example 51]; 1.5 nM
CCCCc1nc(C)c(C(=O)c2ccccc2)c(=O)n1Cc1ccc(-c2ccccc2-c2noc(=O)[nH]2)cc1 [Example 453]; 2.9 nM
CCCc1nc(C)c(Cc2ccccc2)c(=O)n1Cc1ccc(-c2ccccc2-c2noc(=O)[nH]2)cc1 [Example 287]; 1.8 nM
CCCOc1ccc(-c2c(CC)nc(CCC)n(Cc3ccc(-c4ccccc4-c4noc(=O)[nH]4)cc3)c2=O)cc1 [Example 459]; 2.1 nM

--- query ---
Ask: Give the value of IC50 reported for the following: CCCc1nc(C)c(-c2ccc(OC(C)(C)CO)cc2)c(=O)n1Cc1ccc(-c2ccccc2-c2noc(=O)[nH]2)cc1F [Example 509]
Result: 1.2 nM

---

Molecular target: human AT1 receptor (Homo sapiens, UniProt P30556)
Construct: expressed in transfected cells; host or cells: CHO-K1
Test: Binding assay using human AT1 receptor-expressing CHO-K1 cell membrane fraction ([125I]-angiotensin II)
Conditions: 22.5 pM [125I]-angiotensin II, 9 μg AT1 membrane, 1 hr room temperature; read-out: AT1 receptor binding inhibitory action (IC50 (nM))
Where a name gives a salt, the structure may show the parent alone.
Kindly supply the reported IC50 values for the records listed here.
Numbers only, in nM.

As a guide, the following entries are already answered.
CCCc1nc(C)n(-c2ccc(OC3CCC(=O)C(C)C3)cc2)c(=O)c1Cc1ccc(-c2ccccc2-c2noc(O)n2)cc1 (stereo not shown) [Example 356]; 1.1
CCCCc1nc(C)n(Cc2ccccc2)c(=O)c1Cc1ccc(-c2ccccc2-c2noc(=O)[nH]2)cc1 [Example 47]; 1.4
CCCc1nc(CC)n(-c2ccc(O[C@@H]3C[C@@H](C)O[C@@H](C)C3)cc2)c(=O)c1Cc1ccc(-c2ccccc2-c2noc(=O)[nH]2)cc1 [Example 417]; 1.6
C=COc1ccc(-n2c(C)nc(CCC)c(Cc3ccc(-c4ccccc4-c4noc(=O)[nH]4)cc3F)c2=O)cc1 [Example 408]; 1.4
CCCc1nc(CC)c(Oc2cccc(OC)c2)c(=O)n1Cc1ccc(-c2ccccc2-c2noc(O)n2)cc1 [Example 488, potassium salt]; 1.9
CCCCc1nc(C)n(Cc2cccs2)c(=O)c1Cc1ccc(-c2ccccc2-c2noc(=O)[nH]2)cc1 [Example 32]; 1.3

# ---- query molecule ----
Ask: Give a short answer stating reported IC50 for CCCCc1nc(C)n(-c2ccoc2)c(=O)c1Cc1ccc(-c2ccccc2-c2noc(=O)[nH]2)cc1 [Example 206] .
Result: 2

---

Biological target: human AT1 receptor (Homo sapiens)
Construct: expressed in transfected cells; host or cells: CHO-K1
Sequence (P30556 1-359): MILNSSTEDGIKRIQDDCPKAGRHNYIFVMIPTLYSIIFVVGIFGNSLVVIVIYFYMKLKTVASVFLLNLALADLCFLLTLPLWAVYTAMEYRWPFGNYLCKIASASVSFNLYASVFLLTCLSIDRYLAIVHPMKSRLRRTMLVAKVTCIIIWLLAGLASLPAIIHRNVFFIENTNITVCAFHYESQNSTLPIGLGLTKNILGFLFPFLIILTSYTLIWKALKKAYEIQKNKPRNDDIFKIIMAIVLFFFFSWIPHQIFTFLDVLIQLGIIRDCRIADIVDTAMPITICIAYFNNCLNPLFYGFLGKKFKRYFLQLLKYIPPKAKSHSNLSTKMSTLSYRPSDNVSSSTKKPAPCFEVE
Assay: Binding assay using human AT1 receptor-expressing CHO-K1 cell membrane fraction ([125I]-angiotensin II)
Settings: 22.5 pM [125I]-angiotensin II, 9 μg AT1 membrane, 1 hr room temperature; read-out: AT1 receptor binding inhibitory action (IC50 (nM))
Procedure: The membrane fraction for human AT1 receptor binding assay was prepared as follows. CHO-K1 cell capable of stable expression of human AT1 receptor was cultured, recovered, suspended in homogenize buffer (10 mM NaHCO3 (pH 7.4), 5 mM EDTA, 1×Complete EDTA free) [manufactured by Roche, Switzerland], and homogenized. The homogenate was centrifuged at low-speed (900×g, 10 min, 4° C.), and the supernatant was recovered and ultracentrifuged (90,000×g, 1 hr, 4° C.). […]
Structures can show the parent of a compound that is named as a salt.
measured-attribute: IC50 (nM)
Give bare numbers, in nM.

Past entries and their recorded results:
CCCOc1ccc(-n2c(C)nc(CCC)c(Cc3ccc(-c4ccccc4-c4noc(=O)[nH]4)cc3)c2=O)cc1; 1.6
CCCc1nc(C)c(-c2ccc(OC(C)C)cc2)c(=O)n1Cc1ccc(-c2ccccc2-c2noc(O)n2)cc1; 1.6

# batch: return IC50 for each of the 8 compounds below
1. CCCCc1nc(C)n(C(C)c2ccccc2)c(=O)c1Cc1ccc(-c2ccccc2-c2noc(=O)[nH]2)cc1 (centres unmarked)
2. CCCc1nc(CC)c(C(O)C(C)C)c(=O)n1Cc1ccc(-c2ccccc2-c2noc(O)n2)cc1 (centres unmarked) [Example 473, potassium salt]
3. CCCCc1nc(C)c(C(O)c2ccccc2)c(=O)n1Cc1ccc(-c2ccccc2-c2noc(=O)[nH]2)cc1 (centres unmarked)
4. CCCc1nc(C)n(-c2ccc(OC3CCCC3)cc2)c(=O)c1Cc1ccc(-c2ccccc2-c2noc(=O)[nH]2)cc1
5. CCCc1nc(C)n(-c2ccc(OC(C)C)cc2)c(=O)c1Cc1ccc(-c2ccccc2-c2noc(=O)[nH]2)cc1F
6. CCCc1nc(C)n(-c2ccc(OC(C)CC)cc2)c(=O)c1Cc1ccc(-c2ccccc2-c2noc(=O)[nH]2)cc1 (centres unmarked)
7. CCCc1nc(C)n(-c2ccc(O[C@@H]3C[C@@H](C)O[C@@H](C)C3)cc2)c(=O)c1Cc1ccc(-c2ccccc2-c2noc(=O)[nH]2)cc1F
8. CCCc1nc(OC)n(-c2ccc(O[C@@H]3C[C@@H](C)O[C@@H](C)C3)cc2)c(=O)c1Cc1ccc(-c2ccccc2-c2noc(=O)[nH]2)cc1

Result:
[2, 3.6, 2.1, 1.8, 1.8, 1.9, 1.8, 1.6]

Ask: Respond only with IC50 recorded for CCCc1nc(C)n(-c2ccc3c(c2)CC(C)(C)O3)c(=O)c1Cc1ccc(-c2ccccc2-c2noc(=O)[nH]2)cc1
Result: 1.8

Entry source: patent US20100056526A1
